- target or system: hKv11.1 (hERG), IKr (Homo sapiens)
- Construct: host or cells: HEK293T
- Sequence (Q12809 whole entry): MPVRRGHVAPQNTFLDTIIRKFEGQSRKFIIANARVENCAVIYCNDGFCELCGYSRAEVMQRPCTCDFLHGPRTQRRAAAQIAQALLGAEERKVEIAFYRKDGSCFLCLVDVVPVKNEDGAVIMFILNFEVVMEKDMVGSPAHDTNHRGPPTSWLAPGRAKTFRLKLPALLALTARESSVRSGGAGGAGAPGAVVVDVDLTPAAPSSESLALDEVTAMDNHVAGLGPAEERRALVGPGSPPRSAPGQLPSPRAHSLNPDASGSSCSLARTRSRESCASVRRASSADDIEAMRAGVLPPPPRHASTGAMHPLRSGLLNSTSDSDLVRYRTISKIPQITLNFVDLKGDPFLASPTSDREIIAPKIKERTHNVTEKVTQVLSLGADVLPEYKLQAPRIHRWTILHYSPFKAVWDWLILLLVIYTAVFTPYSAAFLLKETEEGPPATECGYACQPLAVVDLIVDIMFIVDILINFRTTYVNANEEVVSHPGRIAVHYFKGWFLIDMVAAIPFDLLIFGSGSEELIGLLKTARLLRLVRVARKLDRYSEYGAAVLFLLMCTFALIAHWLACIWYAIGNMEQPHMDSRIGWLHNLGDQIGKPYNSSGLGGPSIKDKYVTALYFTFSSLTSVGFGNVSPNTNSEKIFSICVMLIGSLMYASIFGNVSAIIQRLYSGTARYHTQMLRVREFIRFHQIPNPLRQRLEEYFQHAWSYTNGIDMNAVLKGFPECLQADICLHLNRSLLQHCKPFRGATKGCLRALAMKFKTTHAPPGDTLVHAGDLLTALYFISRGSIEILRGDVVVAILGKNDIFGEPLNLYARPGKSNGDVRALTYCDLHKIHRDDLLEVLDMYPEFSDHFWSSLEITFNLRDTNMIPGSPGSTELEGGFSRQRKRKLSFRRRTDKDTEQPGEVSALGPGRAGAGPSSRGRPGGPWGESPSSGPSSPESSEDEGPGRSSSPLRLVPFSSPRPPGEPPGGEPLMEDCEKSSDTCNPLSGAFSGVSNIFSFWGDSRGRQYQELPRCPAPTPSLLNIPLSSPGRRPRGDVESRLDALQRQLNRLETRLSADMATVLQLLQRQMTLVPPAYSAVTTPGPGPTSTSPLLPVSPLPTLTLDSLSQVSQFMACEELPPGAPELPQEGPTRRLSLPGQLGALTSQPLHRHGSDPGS
- protocol text: Whole-cell patch-clamp on HEK293T cells, IKr
- Type: cell-based
- condition info: human, HEK293T cells expressing hKv11.1 (hERG), pH 7.4, cenobamate 20 µM; vs. 4.1% in control experiments; read-out: average peak IKr (hERG) inhibition
endpoint: inhibition at 20 µM
Provide a numeric answer, followed by its unit.

Prompt: Fill in the recorded inhibition at 20 µM for this compound, with hKv11.1 (hERG), IKr (Homo sapiens) as test system: NC(=O)O[C@@H](Cn1ncnn1)c1ccccc1Cl [cenobamate]
Completion: 5.3%

* * *

- target or system: hKv7.1 + minK (Homo sapiens, UniProt P51787)
- Sequence (P51787 whole entry): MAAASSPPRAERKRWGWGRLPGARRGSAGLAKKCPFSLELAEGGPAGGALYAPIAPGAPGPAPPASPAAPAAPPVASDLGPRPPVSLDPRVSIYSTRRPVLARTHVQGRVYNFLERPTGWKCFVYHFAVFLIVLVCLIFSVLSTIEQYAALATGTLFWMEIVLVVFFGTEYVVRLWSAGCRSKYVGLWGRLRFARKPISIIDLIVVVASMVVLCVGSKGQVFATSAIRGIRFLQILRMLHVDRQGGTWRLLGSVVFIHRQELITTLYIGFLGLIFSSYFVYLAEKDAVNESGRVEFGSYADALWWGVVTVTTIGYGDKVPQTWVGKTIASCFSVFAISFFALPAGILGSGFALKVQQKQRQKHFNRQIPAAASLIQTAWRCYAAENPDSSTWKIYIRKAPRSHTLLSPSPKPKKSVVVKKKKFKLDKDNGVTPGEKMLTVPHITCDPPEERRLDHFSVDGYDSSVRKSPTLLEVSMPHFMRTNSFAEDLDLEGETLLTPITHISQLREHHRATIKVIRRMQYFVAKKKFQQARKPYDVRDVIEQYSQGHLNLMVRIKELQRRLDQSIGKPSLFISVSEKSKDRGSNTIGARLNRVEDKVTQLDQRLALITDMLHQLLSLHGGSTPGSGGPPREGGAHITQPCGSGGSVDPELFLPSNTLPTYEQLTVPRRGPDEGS
- protocol text: Whole-cell patch-clamp on HEK293T cells, IKs
- Protocol: Experiments were performed on HEK293T cell lines with persistent/inducible expression of different human cardiac ion channel isoforms: hNav1.5 and hKv7.1 + minK (Anaxon AG, Bern, Switzerland), hCav1.2 (α1c + β2 + α2δ1) (B’SYS GmbH, Witterswil, Switzerland), and hKv11.1 (hERG) (Cytocentrics Bioscience GmbH, Rostock, Germany). […]
endpoint: IC50

Prompt: Param item = NC(=O)O[C@@H](Cn1ncnn1)c1ccccc1Cl [cenobamate] ; retrieve measured IC50.
Completion: > 200 µM
